Data provenance: ChEMBL document CHEMBL3244081

Tested on: L1210
Experiment: Anti-leukemic activity against mouse L1210 cells allografted in ip dosed DBA2 mouse assessed as optimum drug dose required for the effect administered qd for 1 to 4 days
Format: functional
Measurement Kind: log optimum dose
Please give only the number in your answer, with no unit.

Example entries and their recorded answers appear below.
Molecule: N=C(N)N/N=C/c1ccc(NC(=O)Nc2ccc(/C=N/NC(=N)N)cc2)cc1
log optimum dose: 1.48
//
Molecule: C/C(=N\NC(=N)N)c1ccc(NC(=N)Nc2ccc(/C(C)=N/NC(=N)N)cc2)cc1
log optimum dose: 0.7
//
Molecule: C/C(=N\NC(=N)N)c1cccc(NC(=O)Nc2cccc(/C(C)=N/NC(=N)N)c2)c1
log optimum dose: 1.48
//
Molecule: C/C(=N\NC(=N)N)c1ccc(NC(=O)Nc2ccc(/C(C)=N/NC(=N)N)cc2)cc1
log optimum dose: 1.4
//
Molecule: CC(/C=N/NC(=N)N)=N\NC(=N)N
log optimum dose: 1.7
//
Molecule: N=C(N)NCCCCCCCCCCNC(=N)N [SYNTHALIN]
log optimum dose: 0.6
//
Molecule: N=C(N)N/N=C/CCC/C=N/NC(=N)N
log optimum dose: 1.87
//
Molecule: Cl.N=C(N)N/N=C/c1ccc(/C=N/NC(=N)N)cc1
log optimum dose: 1.6

Query block: Bench note: what log optimum dose did N=C(N)c1ccc(/C=C/c2ccc(C(=N)N)cc2O)cc1 [HYDROXYSTILBAMIDINE] show?
Result block: 1.87

Query block: Bench note: what log optimum dose did N=C(N)NN=C1C=CC(=NNC(=N)N)C=C1 show?
Result block: 1.88

###

Tested on: L1210
Experiment: Anti-leukemic activity against mouse L1210 cells allografted in ip dosed DBA2 mouse assessed as optimum drug dose required for the effect administered qd for 1 to 4 days
Type: functional
// label = satisfied if log optimum dose is not less than 2, otherwise not satisfied

Smiles: Cl.N=C(N)N/N=C/c1ccc(-c2ccc(/C=N/NC(=N)N)cc2)cc1
Group Label: not satisfied
//
Smiles: N=C(N)N/N=C/C/C=N/NC(=N)N
Group Label: satisfied

Query block: Textbook exercise: given the entry CC(/C=N/N(C)C(=N)N)=N\N(C)C(=N)N , state whether its log optimum dose is greater than or equal to 2.
Result block: satisfied

Query block: Textbook exercise: given the entry CNC(=N)N/N=C/C(C)=N/NC(=N)NC , state whether its log optimum dose is greater than or equal to 2.
Result block: satisfied

Query block: Textbook exercise: given the entry CC(=N\NC(=N)N)/C(C)=N/NC(=N)N , state whether its log optimum dose is greater than or equal to 2.
Result block: satisfied

Query block: Textbook exercise: given the entry C/C(=N\NC(=N)N)c1ccc(NC(=S)Nc2ccc(/C(C)=N/NC(=N)N)cc2)cc1 , state whether its log optimum dose is greater than or equal to 2.
Result block: not satisfied

###

Assay: Displacement of ethidium from poly[d(A-T)]-poly[d(A-T)] DNA (unknown origin) by fluorimetric assay
Measurement Kind: log10(C50) (log10 of the value in µM)
Recorded C50 (log10, µM)

Example entries and their recorded answers appear below.
Smiles: CCC(/C=N/NC(=N)N)=N\NC(=N)N.Cl
log10(C50): 2.05
//
Smiles: Cl.N=C(N)N/N=C/c1ccc(-c2ccc(/C=N/NC(=N)N)cc2)cc1
log10(C50): -0.85
//
Smiles: C/C(=N\NC(=N)N)c1ccc(NC(=S)Nc2ccc(/C(C)=N/NC(=N)N)cc2)cc1
log10(C50): 0.08
//
Smiles: CNC(=N)N/N=C/C(C)=N/NC(=N)NC
log10(C50): 1.43

Query block: Bench note: what log10(C50) did Cl.N=C(N)N/N=C/c1ccc(/C=N/NC(=N)N)cc1 show?
Result block: 0.46

###

Assay: Displacement of ethidium from poly[d(A-T)]-poly[d(A-T)] DNA (unknown origin) by fluorimetric assay
# C50 listing for each entry below
Form entry: value (µM) — number only.

Query block: Bench note: what C50 did N=C(N)N/N=C/c1ccc(NC(=O)Nc2ccc(/C=N/NC(=N)N)cc2)cc1 show?
Result block: 0.3

Query block: Bench note: what C50 did N=C(N)NCCCCCCCCCCNC(=N)N [SYNTHALIN] show?
Result block: 127

###

Test: Binding affinity to DNA (unknown origin) assessed as decrease in velocity of L1210 DNA-dependent DNA polymerase reaction
Measurement Kind: logIC50
Please give only the number in your answer, with no unit.

Example entries and their recorded answers appear below.
Smiles: CC(=N\NC(=N)N)/C(C)=N/NC(=N)N
Reading: 2.7
--
Smiles: CNC(=N)N/N=C/C(C)=N/NC(=N)NC
Reading: 2.81
--
Smiles: C/C(=N\NC(=N)N)c1ccc(NC(=O)Nc2ccc(/C(C)=N/NC(=N)N)cc2)cc1
Reading: 1.95
--
Smiles: Cl.N=C(N)N/N=C/c1ccc(-c2ccc(/C=N/NC(=N)N)cc2)cc1
Reading: 1.6
--
Smiles: N=C(N)N/N=C/c1ccc(NC(=O)Nc2ccc(/C=N/NC(=N)N)cc2)cc1
Reading: 1.95

Query block: Bench note: what logIC50 did CC(/C=N/NC(=N)N)=N\NC(=N)N show?
Result block: 2.85

###

Experiment: Displacement of ethidium from poly[d(A-T)]-poly[d(A-T)] DNA (unknown origin) by fluorimetric assay
Mark 1 only for C50 values smaller than 10 µM; exact matches and larger values are 0.

Compound: N=C(N)NN=C1C=CC(=NNC(=N)N)C=C1
Group Label: 0

Compound: CC(=N\NC(=N)N)/C(C)=N/NC(=N)N
Group Label: 0

Compound: C/C(=N\NC(=N)N)c1ccc(NC(=N)Nc2ccc(/C(C)=N/NC(=N)N)cc2)cc1
Group Label: 1

Compound: N=C(N)N/N=C/CCC/C=N/NC(=N)N
Group Label: 0

Compound: N=C(N)c1ccc(/C=C/c2ccc(C(=N)N)cc2O)cc1 [HYDROXYSTILBAMIDINE]
Group Label: 1

Compound: C/C(=N\NC(=N)N)c1cccc(NC(=O)Nc2cccc(/C(C)=N/NC(=N)N)c2)c1
Group Label: 1

Compound: C/C(=N\NC(=N)N)c1ccc(NC(=O)Nc2ccc(/C(C)=N/NC(=N)N)cc2)cc1
Group Label: 1

Compound: CC(/C=N/NC(=N)N)=N\NC(=N)N
Group Label: 0

Now for a further compound.
Query block: Is C50 strictly under 10 µM for the entry CC(/C=N/N(C)C(=N)N)=N\N(C)C(=N)N ?
Result block: 0
